assay: qHTS of pediatric cancer cell lines to identify multiple opportunities for drug repurposing: Primary screen for control Hh wild type fibroblast cells (AID 1347106); settings: Hh wild-type fibroblast viability, CellTiter-Glo luminescence, 48 h; series mostly up to 46 µM;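 note: % is set by controls: 0 for no effect and ±100 for the full control effect; a drop in luminescence marks cytotoxicity and a rise apparent proliferation; nearly all actives have a fitted effect of over 55% in size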
Records with an inconclusive call do not appear. Active and inactive are the calls of the source. Calls come from the whole dose curve; as a rule, active = well fitted cell-killing curve with a large enough effect; inconclusive = small, poorly fitted or top-dose-only effect; inactive = flat fitted curve, though single readings scatter.
Write down one outcome, taken from active, inactive

**Query** Assay result, entry CCCNC(=O)Nc1ccc(Oc2ncnc3cc(OC)c(OC)cc23)cc1Cl — outcome?
**Result** inactive

**Query** Same question, CC(C)c1cnn2c(NCc3ccccc3)cc(N[C@@H](CO)[C@H](O)CO)nc12 this time
**Result** inactive

**Query** Same question, Cc1nc2ccc(CN(C)c3ccc(C(=O)N[C@@H](CCC(=O)O)C(=O)O)s3)cc2c(=O)[nH]1 this time
**Result** inactive

**Query** Same question, CC(C)c1noc(N2CCC(COc3ccc(-c4ccc(S(C)(=O)=O)cc4)nc3)CC2)n1 this time
**Result** inactive

**Query** Same question, CC(C)c1ccc(Cn2ccc3c4c(N)nc(NC5CC5)nc4ccc32)cc1 this time
**Result** inactive

**Query** Same question, CS(=O)(=O)c1ccc(-c2cnc(N)c(C(=O)Nc3ccccc3)n2)cc1 this time
**Result** inactive

**Query** Same question, NC(=O)Nc1cc(-c2cccc(F)c2)sc1C(=O)N[C@H]1CCCNC1 this time
**Result** inactive

**Query** Same question, CN(C1CCc2c(c3ccccc3n2CC(=O)O)C1)S(=O)(=O)c1ccc(F)cc1 (configuration not stated) this time
**Result** inactive

**Query** Same question, COC(=O)C1=C(C)NC(C)=C(C(=O)OCCN2CCN(C(c3ccccc3)c3ccccc3)CC2)C1c1cccc([N+](=O)[O-])c1 (configuration not stated) this time
**Result** inactive

###

assay: Quantitative High-Throughput drug screen in 47 multiple myeloma cell lines against the NCATS MIPE library collection: OCIMY7_PLB cell viability assay (AID 1918987); settings: OCI-MY7 myeloma viability, CellTiter-Glo ATP, 48 h; series mostly up to 45.8 µM; note: potency is the fitted concentration of half-maximal effect; nearly all actives have a fitted effect of over 65% in size
Results filed as inconclusive are left out. The source made the active and inactive calls. Calls come from the whole dose curve; as a rule, active = well fitted cell-killing curve with a large enough effect; inconclusive = small, poorly fitted or top-dose-only effect, or effect the other way; inactive = no such curve, though single readings can be large or run the other way.
parameter: Potency

**Query** So what does the record say about Potency for CNC(=O)c1nn(C)c2c1C(C)(C)Cc1cnc(Nc3ccc(N4CCN(C)CC4)cc3)nc1-2 ?
**Result** 1320 nM (active)

**Query** Same question, COc1cc(C(C)C)c2c(c1)S(=O)(=O)N(COc1cc(=O)n3cccc(OCCN4CCCCC4)c3n1)C2=O this time
**Result** 11800 nM (active)

**Query** Same question, Cc1c(CN2CCN(S(C)(=O)=O)CC2)sc2c(N3CCOCC3)nc(-c3cnc(N)nc3)nc12 this time
**Result** 132 nM (active)

**Query** Same question, Fc1cc(-c2cccc3ncc(-c4cnn(C5CCNCC5)c4)nc23)cc(F)c1CN1CCOCC1 this time
**Result** 6620 nM (active)

**Query** Same question, CCCCN1CCC(CNC(=O)c2c3n(c4ccccc24)CCCO3)CC1 this time
**Result** 3720 nM (active)

**Query** Same question, Cc1cc(Nc2cc(N3CCN(C)CC3)nc(Sc3ccc(NC(=O)C4CC4)cc3)n2)n[nH]1 this time
**Result** 296 nM (active)

**Query** Same question, CC(C)c1nn(-c2c(Cl)cccc2Cl)c2nc(Cc3ccc(OCCO)cc3)[nH]c(=O)c12 this time
**Result** 74.3 nM (active)

**Query** Same question, Nc1nc(NCCNc2ncc(-n3ccnc3)c(-c3ccc(Cl)cc3Cl)n2)ccc1[N+](=O)[O-] this time
**Result** 5260 nM (active)

**Query** Same question, CC(C)[C@H](C(=O)Nc1ccc(C(=O)NO)cc1)c1ccccc1 this time
**Result** 418 nM (active)

###

assay: qHTS of pediatric cancer cell lines to identify multiple opportunities for drug repurposing: Primary screen for SK-N-SH cells (AID 1347098); details: SK-N-SH viability, CellTiter-Glo luminescence, 48 h; series mostly up to 57 µM; note: nearly all actives have a fitted effect of over 65% in size
Records with an inconclusive call do not appear. The source made the active and inactive calls. Calls come from the whole dose curve; as a rule, active = well fitted cell-killing curve with a large enough effect; inconclusive = small, poorly fitted or top-dose-only effect; inactive = no such curve, though single readings can be large or run the other way.
Write down one outcome, taken from 1 for active, -1 for inactive

>>> label("CC1(C)CCC(c2ccc(Cl)cc2)=C(CN2CCN(c3ccc(C(=O)NS(=O)(=O)c4ccc(N[C@H](CCN5CCOCC5)CSc5ccccc5)c(S(=O)(=O)C(F)(F)F)c4)cc3)CC2)C1")
1
>>> label("CC(C)(C)NC(=O)[C@H]1CN(Cc2cccnc2)CCN1C[C@@H](O)C[C@@H](Cc1ccccc1)C(=O)N[C@H]1c2ccccc2C[C@H]1O")
1
>>> label("Cc1c(C)n(Cc2ccc(-c3ccccc3C(=O)O)cc2)c2ccc(C(=O)N[C@@H](C)c3ccc([N+](=O)[O-])cc3)cc12")
1
>>> label("NC(=O)c1cccc2cn(-c3ccc([C@@H]4CCCNC4)cc3)nc12")
-1

**Query** Assay result, entry CCn1cc(-c2ccnc3[nH]c(-c4cccc(CN(C)C)c4)cc23)c(-c2ccc(NC(=O)N(C)C)cc2)n1 — outcome?
**Result** 1

**Query** Same question, C=CC(=O)Nc1cc2c(Nc3ccc(F)c(Cl)c3)ncnc2cc1C#CC(C)(C)N1CCN(C)CC1 this time
**Result** 1

###

Entries and their activity
target: Catechol O-methyltransferase (Homo sapiens); assay: Confirmatory Screen for Target Class Profiling of Small Molecule Inhibitors of Methyltransferases (AID 1745852); conditions: MTase-Glo luminescence, SAH detection, recombinant enzyme; measured here: COMT max response; stronger effect = lower value
Please respond with the number in % and leave the unit unwritten.

>>> quantitative_readout("CCn1nnc2c(N3CCOCC3)nc(-c3ccc(NC(=O)Nc4ccc(C(=O)N5CCN(C)CC5)cc4)cc3)nc21")
-6.26
>>> quantitative_readout("Cc1coc2c1C(=O)C(=O)c1c-2ccc2c1CCCC2(C)C")
-26.5
>>> quantitative_readout("NC1(Cc2ccc(Cl)cc2)CCN(c2ncnc3[nH]ccc23)CC1")
-4.59

With those in mind, consider the next molecule.
**Query** So what does the record say about activity for COCCOc1ccc2c(c1)ncn2-c1ccc2cccc(N3CCC(N)CC3)c2n1 ?
**Result** -17.6

###

Assay: Quantitative High-Throughput drug screen in 47 multiple myeloma cell lines against the NCATS MIPE library collection: ARD_JJKsccE7 cell viability assay (AID 1918929;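 for viability: 100% = DMSO-only wells and 0% = media-only wells without cells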)
Settings: ARD myeloma cell line viability, CellTiter-Glo, 48 h; series mostly up to 45.8 µM
Excerpt: PI: Beverly A. Mock Ph.D. Laboratory of Cancer Biology and Genetics, Center for Cancer Research, National Cancer Institute, National Institute of Health, Bethesda, Maryland […] 5; Detector; 425V; Luminescence; Viewlux PerkinElmer. […] 1. […] Briefly, the corresponding myeloma cell lines were screened in 1,536-well plates with 500 cells, 5-uL per well for inhibition of cell viability (assessed by measuring ATP levels with CellTiterGlo). […]
Results filed as inconclusive are left out. Activity calls are given as the source filed them. The call rests on the fitted dose curve; in most records, active means well fitted cell-killing curve with a large enough effect; inconclusive means small, poorly fitted or top-dose-only effect, or effect the other way; inactive means no such curve, though single readings can be large or run the other way.
Write down one outcome, taken from active, inactive

>>> label("Cc1cc(Nc2cc(N3CCN(C)CC3)nc(C=Cc3ccccc3)n2)n[nH]1")
"active"
>>> label("CC(C)c1cc(-c2n[nH]c(=O)n2-c2ccc3c(ccn3C)c2)c(O)cc1O")
"active"
>>> label("Nc1nc(Nc2ccc(S(N)(=O)=O)cc2)nn1C(=O)c1c(F)cccc1F")
"active"
>>> label("COc1ccc(-n2nc(C(N)=O)c3c2C(=O)N(c2ccc(N4CCCCC4=O)cc2)CC3)cc1")
"inactive"
>>> label("CCn1nnc2c(N3CCOCC3)nc(-c3ccc(NC(=O)Nc4ccc(C(=O)N5CCN(C)CC5)cc4)cc3)nc21")
"active"
>>> label("COc1cc2c(cc1-c1c(C)noc1C)ncc1[nH]c(=O)n([C@H](C)c3ccccn3)c12")
"active"
>>> label("CN(c1ncccc1CNc1nc(Nc2ccc3c(c2)CC(=O)N3)ncc1C(F)(F)F)S(C)(=O)=O")
"active"
>>> label("COc1cc2c(Oc3ccc(NC(=O)C4(C(=O)Nc5ccc(F)cc5)CC4)cc3F)ccnc2cc1OCCCN1CCOCC1")
"active"
>>> label("COc1cc2nccc(Oc3ccc(NC(=O)C4(C(=O)Nc5ccc(F)cc5)CC4)cc3)c2cc1OC")
"active"
>>> label("CN(C)Cc1c(C(=O)NCCOc2ccc(C(=O)NO)cc2)oc2ccccc12")
"active"

**Query** Assay result, entry C[C@@H](Oc1cc(-n2cnc3ccc(CN4CCN(C)CC4)cc32)sc1C(N)=O)c1ccccc1C(F)(F)F — outcome?
**Result** active

**Query** Same question, CC(C)c1cnn2c(NCc3ccccc3)cc(N[C@@H](CO)[C@H](O)CO)nc12 this time
**Result** active

**Query** Same question, Nc1ncnc2c1c(-c1cnc3[nH]ccc3c1)nn2C1CCCC1 this time
**Result** active

**Query** Same question, Cc1ccc(CN2CCNCC2)cc1NC(=O)CNc1ccc(F)c(F)c1 this time
**Result** inactive

**Query** Same question, Cc1ccc(C(=O)Nc2cccc(C(F)(F)F)c2)cc1-c1ccc2nc(NCCN3CCOCC3)ncc2c1 this time
**Result** active

**Query** Same question, COc1ccc(F)c(F)c1C(=O)c1cnc(NC2CCN(S(C)(=O)=O)CC2)nc1N this time
**Result** active

**Query** Same question, Cn1c2cc(S(C)=O)sc2c2cnn(Cc3cccc(N)c3)c(=O)c21 (stereo not given) this time
**Result** inactive

**Query** Same question, COc1ccc(C=Cc2cc(OC)c(OC)c(OC)c2)cc1O this time
**Result** inactive

**Query** Same question, Nc1cc(C(F)(F)F)c(-c2cc(N3CCOCC3)nc(N3CCOCC3)n2)cn1 this time
**Result** active

**Query** Same question, O=C(O)CCCc1c[nH]c2ccccc12 this time
**Result** inactive
